- system_tested: human GLP-1 receptor (hGLP-1R) (Homo sapiens)
- Construct: expressed in transfected cells
- Sequence (P43220 24-463): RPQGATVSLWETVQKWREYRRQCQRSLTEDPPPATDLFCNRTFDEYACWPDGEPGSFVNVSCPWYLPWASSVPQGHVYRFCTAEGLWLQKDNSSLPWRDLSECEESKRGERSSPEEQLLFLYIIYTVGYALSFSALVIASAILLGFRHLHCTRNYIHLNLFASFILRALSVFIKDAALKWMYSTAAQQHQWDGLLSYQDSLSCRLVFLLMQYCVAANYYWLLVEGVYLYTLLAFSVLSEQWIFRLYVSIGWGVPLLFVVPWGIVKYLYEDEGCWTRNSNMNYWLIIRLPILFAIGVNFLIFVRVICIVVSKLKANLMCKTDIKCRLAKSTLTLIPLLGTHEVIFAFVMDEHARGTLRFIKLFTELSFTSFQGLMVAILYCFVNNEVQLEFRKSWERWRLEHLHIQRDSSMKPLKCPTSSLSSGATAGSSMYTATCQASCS
- experimental_details: GLP-1 receptor assay, method A (CRE-luciferase reporter, BHK cells)
- Assay type: cell-based
- test_context: method A, absence of HSA; read-out: hGLP-1R Potency, no HSA, EC50
- Method: To assess how the activation of the receptors is potentially influenced by the presence of human serum albumin (HSA), the in vitro assays were performed in the absence of HSA and presence of 1% (w/v) HSA. Cells at approximately 80-90% confluence were washed once in PBS (Gibco 14190-094) and loosened from the cell flasks with Versene (Gibco, 15040-033). […] Cells were aliquoted and stored at −180° C. until use. […]
Numbered stars: 1 amine (or outer) side, 2 acyl side, 3 side chain; on linkers, the order of the positions; unused ones are H or OH. Square brackets hold non-standard residues; d marks the D form. Side chains are listed from the residue outwards. * marks the point of attachment. C20 diacid = O=C(O)CCCCCCCCCCCCCCCCCCC(=O)*; C18 diacid = O=C(O)CCCCCCCCCCCCCCCCC(=O)*; γGlu = O=C(O)[C@H](CCC(=O)[*:2])N[*:1]; AEEA = NCCOCCOCC(=O)O; Aib = CC(C)(N)C(=O)O
reported_property: pEC50
Hey, just a heads up that pEC50 is the negative log base 10 of the concentration in molar.

In: Tell me pEC50 reported for Y[Aib]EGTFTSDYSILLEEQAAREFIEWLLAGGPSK([AEEA-AEEA-γGlu-C18 diacid])GEASELSTAALARLSAELHRLATLPRTETGSGSP-NH2 [Compound 28]
Out: 10.02

In: Read the entry H[Aib]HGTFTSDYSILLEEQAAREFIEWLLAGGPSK([AEEA-AEEA-γGlu-C18 diacid])GAPPPSGGGEASELSTAALGRLSAELHRLATLPRTETGSGSP-NH2 [Compound 30] and write its reported pEC50.
Out: 11.20

In: Consider the substance Y[Aib]EGTFTSDYSILLEEQAAREFIEWLLAGGPSSGAGQAPGQAPGASHLSTAALGRLSAELHK([AEEA-AEEA-γGlu-C18 diacid])LATLPRTETGSGSP-NH2 [Compound 53] and give its recorded pEC50.
Out: 10.63

In: Give pEC50 for Y[Aib]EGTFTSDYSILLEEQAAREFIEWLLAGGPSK([AEEA-AEEA-γGlu-C18 diacid])GGQEPGQEPGEASHLSTAQTQRLSAELHELATLPRTETGSGSP-NH2 [Compound 39]
Out: 10.62

In: Report pEC50 for Y[Aib]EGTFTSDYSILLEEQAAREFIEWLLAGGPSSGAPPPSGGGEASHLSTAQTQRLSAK([AEEA-AEEA-γGlu-C20 diacid])LHRLATLPRTETGSGSP-NH2 [Compound 110]
Out: 9.97

In: Quote pEC50 reported for Y[Aib]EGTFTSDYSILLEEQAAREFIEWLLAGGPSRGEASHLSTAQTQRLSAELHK([AEEA-AEEA-γGlu-C18 diacid])LATLPRTETGSGSP-NH2 [compound 68] please.
Out: 10.92

In: Using the record for Y[Aib]EGTFTSDYSILLEEQAAREFIEWLLAGGPSSGALQAPGQAPLASHLSTAQTQRLSAELHK([AEEA-AEEA-γGlu-C20 diacid])LATLPRTETGSGSP-NH2 [Compound 99] , state its measured pEC50.
Out: 10.78

In: Answer with the recorded pEC50 of Y[Aib]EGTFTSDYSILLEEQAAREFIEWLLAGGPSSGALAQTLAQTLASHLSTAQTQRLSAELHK([AEEA-AEEA-γGlu-C20 diacid])LATLPRTETGSGSP-NH2 [Compound 60] only.
Out: 10.03

In: Quickly give me recorded pEC50 for H[Aib]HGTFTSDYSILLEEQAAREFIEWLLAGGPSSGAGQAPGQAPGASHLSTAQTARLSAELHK([AEEA-AEEA-γGlu-C18 diacid])LATLPRTETGSGSP-NH2 [Compound 103]
Out: 11.28

In: Answer with the recorded pEC50 of H[Aib]HGTFTSDYSILLEEQAAREFIEWLLAGGPSSGAGQAPGQAPGASHLSTAQTQRLSAELHRLATLPK([AEEA-AEEA-γGlu-C18 diacid])TETGSGSP-NH2 [Compound 92] only.
Out: 11.59

In: Please indicate pEC50 recorded for Y[Aib]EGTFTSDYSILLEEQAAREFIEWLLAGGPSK([AEEA-AEEA-γGlu-C18 diacid])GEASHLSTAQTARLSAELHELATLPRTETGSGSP-NH2 [Compound 35]
Out: 10.63
